# STUDY SYSTEM: T1, RHAU53 peptide (DHX36 fragment) (UniProt Q9H2U1)
# T1 chain: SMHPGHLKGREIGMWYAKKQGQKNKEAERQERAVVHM
# EXPERIMENT NOTES: EMSA; EMSA and MST: 25 mM Tris-HCl pH 7.5, 150 mM KCl, 1 mM MgCl2, 37 C 30 min; 30 nM (EMSA) or 40 nM (MST) FAM-oligo; EMSA gel 10% native PAGE, 0.5x TBE, 4 C
# TEST SETTINGS: label: 3'-FAM; G4
PARAMETER MEASURED: Kd (nM)
Answers are plain numbers, in nM.

Find the recorded Kd belonging to GGGUUGCGGAGGGUGGGCCU (structured_RNA, 5'-hexynyl) [FAM_rG4 (5' Hexynyl_hTERC rG4 WT_3' FAM)] and report it.
66.7
